SYSTEM_NAME: MC4-R (Homo sapiens)
Sequence (P32245 whole entry): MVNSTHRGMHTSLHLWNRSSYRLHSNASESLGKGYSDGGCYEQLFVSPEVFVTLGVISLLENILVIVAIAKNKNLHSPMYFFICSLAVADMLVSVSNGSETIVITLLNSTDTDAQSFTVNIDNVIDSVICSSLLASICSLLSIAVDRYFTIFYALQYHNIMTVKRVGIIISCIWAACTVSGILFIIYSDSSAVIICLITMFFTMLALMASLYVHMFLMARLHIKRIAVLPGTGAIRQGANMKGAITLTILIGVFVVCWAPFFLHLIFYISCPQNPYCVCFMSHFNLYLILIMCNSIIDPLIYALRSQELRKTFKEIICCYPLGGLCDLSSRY
TEST: cAMP agonist stimulation, low receptor density system (0.1 ng/mL doxycycline)
ENDPOINT_LABEL: log10(EC50) (log10 of the value in nM)
On a log10 scale: recorded EC50, unit nM.

# count of solved cases: 4
{"COMPOUND_SMILES": "CCNC(=O)[C@@H]1CCCCNC(=O)C[C@H](NC(C)=O)C(=O)N[C@@H](Cc2c[nH]cn2)C(=O)N[C@H](Cc2ccccc2)C(=O)N[C@@H](CCCNC(=N)N)C(=O)N[C@@H](Cc2c[nH]c3ccccc23)C(=O)N1", "log10(EC50)": 0.49}
{"COMPOUND_SMILES": "CCCC[C@H](NC(C)=O)C(=O)N[C@H]1CC(=O)NCCCC[C@@H](C(=O)NCC)NC(=O)[C@H](Cc2cccc3ccccc23)NC(=O)[C@H](CCCNC(=N)N)NC(=O)[C@@H](Cc2ccccc2)NC(=O)[C@H](Cc2c[nH]cn2)NC1=O", "log10(EC50)": 1.00}
{"COMPOUND_SMILES": "CCCC[C@H](NC(C)=O)C(=O)N[C@H]1CC(=O)NCCCC[C@@H](C(=O)N(C)C)NC(=O)[C@H](Cc2cccc3ccccc23)NC(=O)[C@H](CCCNC(=N)N)NC(=O)[C@@H](Cc2ccccc2)NC(=O)[C@H](Cc2c[nH]cn2)NC1=O", "log10(EC50)": 0.32}
{"COMPOUND_SMILES": "C[C@@H]1CN(C(=O)[C@H](N)Cc2ccc(Cl)cc2)[C@@H](CCCNC(=N)N)CN1CCc1ccc2ccccc2c1", "log10(EC50)": 2.03}

# log10(EC50) lookup, item `Cc1cc(Cl)ccc1C[C@@H](N)C(=O)N1C[C@@H](C)N(C(=O)Cc2ccc3ccccc3c2)C[C@@H]1CCCNC(=N)N`
1.58
